targetSystem: T1, human C5 (human, UniProt P01031 19-673; P01031 678-1676, Beta and alpha chains are disulfide-linked and the protein is glycosylated.)
T1 construct: Either in-house recombinant C5 or plasma derived C5 (CALBIOCHEM) was used; also called recombinant human C5; plasma derived human C5
experiment: Biacore, captured antibody, pH 7.4, 37 C;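 also: biacore binding response of anti-C5 antibody light chain variants captured on chip with human C5 injected, ACES running buffer containing 1.2 mM CaCl₂, parent light chain antibody set to 100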
So I've got a bunch of binders here, and I need their % binding (parent = 100) values.
One number for each entry, in %.

- binder: "CFP0015 15L 92T (antibody, V domains shown) VH: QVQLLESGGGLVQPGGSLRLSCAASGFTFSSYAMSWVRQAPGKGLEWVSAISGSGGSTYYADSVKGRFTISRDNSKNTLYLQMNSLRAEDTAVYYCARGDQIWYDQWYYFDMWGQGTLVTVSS VL: DIQMTQSPSSLSASVGDRVTITCRASQSIEDDLAWYQQKPGKAPKLLIYEASNLQSGVPSRFSGSGSGTDFTLTISSLQPEDFATYYCQQYTSSPLTFGQGTKVEIK"
  % binding (parent = 100), %: 74.1

Hi team, please reply with % binding (parent = 100) for each item in this list.
1. CFP0011 11L 31N (antibody, V domains shown) VH: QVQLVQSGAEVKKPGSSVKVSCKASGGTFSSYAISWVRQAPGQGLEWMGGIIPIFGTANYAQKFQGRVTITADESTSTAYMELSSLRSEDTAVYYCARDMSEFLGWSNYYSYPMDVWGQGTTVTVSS VL: DIQMTQSPSSLSASVGDRVTITCRASQSIENDLAWYQQKPGKAPKLLIYHASSLQSGVPSRFSGSGSGTDFTLTISSLQPEDFATYYCQQSDNSPYTFGQGTKVEIK
2. CFP0011 11L 96P (antibody, V domains shown) VH: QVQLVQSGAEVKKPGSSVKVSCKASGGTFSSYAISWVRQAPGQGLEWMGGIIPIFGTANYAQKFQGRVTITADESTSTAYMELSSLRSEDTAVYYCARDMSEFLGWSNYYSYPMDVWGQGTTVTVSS VL: DIQMTQSPSSLSASVGDRVTITCRASQSIEDDLAWYQQKPGKAPKLLIYHASSLQSGVPSRFSGSGSGTDFTLTISSLQPEDFATYYCQQSDNSPPTFGQGTKVEIK

[125, -1.6]
